ASSAY TARGET: Leucyl-cystinyl aminopeptidase (Homo sapiens)
Sequence (Q9UIQ6 whole entry): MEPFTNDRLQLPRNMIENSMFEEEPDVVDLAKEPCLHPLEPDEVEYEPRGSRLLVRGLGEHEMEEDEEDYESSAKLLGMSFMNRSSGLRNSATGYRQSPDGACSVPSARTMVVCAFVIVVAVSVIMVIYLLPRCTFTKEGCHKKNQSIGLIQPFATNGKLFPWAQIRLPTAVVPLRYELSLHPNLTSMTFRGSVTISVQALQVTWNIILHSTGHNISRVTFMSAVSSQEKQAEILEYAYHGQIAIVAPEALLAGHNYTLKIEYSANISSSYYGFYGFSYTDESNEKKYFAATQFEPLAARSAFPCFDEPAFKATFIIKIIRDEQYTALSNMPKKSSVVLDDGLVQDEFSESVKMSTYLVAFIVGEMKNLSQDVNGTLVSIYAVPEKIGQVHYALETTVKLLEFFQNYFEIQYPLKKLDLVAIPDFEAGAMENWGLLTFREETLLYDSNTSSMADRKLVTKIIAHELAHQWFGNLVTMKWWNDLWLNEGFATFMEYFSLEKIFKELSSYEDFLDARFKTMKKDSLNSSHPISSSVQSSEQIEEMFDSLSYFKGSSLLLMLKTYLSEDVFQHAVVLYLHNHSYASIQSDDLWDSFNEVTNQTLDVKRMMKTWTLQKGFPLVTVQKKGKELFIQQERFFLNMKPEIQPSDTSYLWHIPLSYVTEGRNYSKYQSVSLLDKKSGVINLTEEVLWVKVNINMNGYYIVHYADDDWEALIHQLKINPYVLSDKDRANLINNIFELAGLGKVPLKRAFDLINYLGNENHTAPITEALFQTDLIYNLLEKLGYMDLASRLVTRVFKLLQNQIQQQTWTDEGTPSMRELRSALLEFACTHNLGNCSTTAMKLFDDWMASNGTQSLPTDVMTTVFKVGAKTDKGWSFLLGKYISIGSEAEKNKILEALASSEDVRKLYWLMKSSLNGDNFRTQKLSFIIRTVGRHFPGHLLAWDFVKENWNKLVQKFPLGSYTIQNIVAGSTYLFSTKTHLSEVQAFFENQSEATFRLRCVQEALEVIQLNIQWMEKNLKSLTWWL
TEST METHOD NOTES: Inhibition of human recombinant IRAP expressed in baculovirus infected cabbage looper ovary Hi5 cells using L-leucine-7-amido-4-methyl coumarin as substrate after 5 to 10 mins by fluorescence assay
Quick reference for IC50 among some compounds
QUANTITY NAME: IC50

| CPD SMILES | RECORDED RESULT |
| --- | --- |
| CCCC[C@H](N)C(=O)Nc1cc(C(=O)N[C@H](C(=O)O)C(C)C)ccc1N | > 100 µM |
| CCCC[C@H](N)C(=O)Nc1ccc(C(=O)N[C@H](C(=O)O)C(C)C)cc1N | 3.9 µM |
| CCCC[C@H](N)C(=O)Nc1cc(C(=O)N[C@@H](CCCCN)C(=O)OC)ccc1N | > 100 µM |
| COC(=O)[C@H](CCCCN)NC(=O)c1ccc(NC(=O)[C@@H](N)CC(C)C)c(N)c1 | > 100 µM |
| NCCC[C@H](NC(=O)c1ccc(N)c(NC(=O)[C@@H](N)CCc2ccccc2)c1)C(=O)O | > 100 µM |
